Test system: T-47D cells
Assay: Inhibition of cell proliferation in T-47D cells (CCK-8, 6 days)
Assay type: cell-based
Settings: 6 days of treatment, Table 3
Measured pIC50 accompanies every entry in the list below.
Note on units: pIC50 is unitless, being -log10 of a concentration expressed in mol/L.

Some compounds with known pIC50 results, for comparison:
[
  {
    "compound": "O=C1CCC(N2C(=O)c3cc4c(cc3C2=O)OC2(CC4)CN(CC3CCC4(CC3)CCN(c3ccc([C@@H]5c6ccc(O)cc6CC[C@@H]5c5ccccc5)cc3)CC4)C2)C(=O)N1 (some centres unmarked) [A41]",
    "pIC50": 7.64
  },
  {
    "compound": "C[C@H]1CN(c2ccc([C@@H]3c4ccc(O)cc4CC[C@@H]3c3ccccc3)cc2)CCN1C[C@H]1CC[C@H](C(=O)N2CCC3(CC2)COc2c3ccc3c2CN(C2CCC(=O)NC2=O)C3=O)CC1 (some centres unmarked) [B36]",
    "pIC50": 8.99
  },
  {
    "compound": "O=C1CCC(N2Cc3c(ccc4c3OCC43CCN(C(=O)C4CCC(CN5CCN(c6ccc(C7c8ccc(O)cc8CCC7c7ccccc7)cc6)CC5)CC4)CC3)C2=O)C(=O)N1 (centres unmarked) [C5]",
    "pIC50": 8.89
  },
  {
    "compound": "O=C1CCC(N2C(=O)c3cc4c(cc3C2=O)OC2(CC4)CCN(CC3CCC4(CC3)CCN(c3ccc([C@@H]5c6ccc(O)cc6CC[C@@H]5c5ccccc5)cc3)CC4)CC2)C(=O)N1 (some centres unmarked) [A43]",
    "pIC50": 7.39
  }
]

Q. Look up and report measured pIC50 for this entry: O=C1CCC(N2Cc3c(ccc4c3OCC43CCN(C(=O)C4CCC(N5CCN(c6ccc([C@@H]7c8ccc(O)cc8CC[C@@H]7c7ccccc7)cc6)CC5)CC4)CC3)C2=O)C(=O)N1 (some centres unmarked) [H17]
A. 8.99
